# TESTED TARGET: prostaglandin E2-induced contractions of segments of guinea pig ileum (Cavia porcellus, UniProt A0A286XHJ6)
# Construct: Segments of ileum about 2 cm long were then cut and mounted in a 10-mL tissue bath; from tissue; host or cells: guinea pig ileum segments
# Sequence (A0A286XHJ6 1-405): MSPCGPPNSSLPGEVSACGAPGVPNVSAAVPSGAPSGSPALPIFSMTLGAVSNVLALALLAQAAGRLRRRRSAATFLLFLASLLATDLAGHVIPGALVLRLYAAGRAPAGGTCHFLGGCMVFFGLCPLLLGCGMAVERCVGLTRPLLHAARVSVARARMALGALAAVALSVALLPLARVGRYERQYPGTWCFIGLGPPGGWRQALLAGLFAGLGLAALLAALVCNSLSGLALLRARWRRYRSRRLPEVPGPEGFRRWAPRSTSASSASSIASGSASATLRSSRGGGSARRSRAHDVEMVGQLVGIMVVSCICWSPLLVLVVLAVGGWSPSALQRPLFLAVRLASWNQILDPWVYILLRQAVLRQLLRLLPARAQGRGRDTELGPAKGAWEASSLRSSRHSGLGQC
# PROCEDURE DETAILS: Prostaglandin (PGE) Antagonism Assay, guinea pig ileum
# Type: cell-based
# TEST PARAMETERS: estimated, assuming Schild slope -1.0; initial concentration 3 micromolar; read-out: PGE in guinea pig ileum, Estimated pA2 value (converted)
Structures can show the parent of a compound that is named as a salt.
RESULT TYPE: Kb (nM)

Measured Kb, O=C(CCc1ccncc1)NCC(=O)N1Cc2ccccc2Oc2ccc(Cl)cc21 [Example 3, monohydrochloride] : 2000

# compound `CCS(=O)(=O)CCC(=O)NCC(=O)N1Cc2ccccc2Oc2ccc(Cl)cc21` ; its Kb = 2000

P: CCS(=O)(=O)CCC(=O)CNC(=O)N1Cc2ccccc2Oc2ccc(Cl)cc21
Q: CN(C)CCSCCC(=O)NCC(=O)N1Cc2ccccc2Oc2ccc(Cl)cc21 [Example 6, monohydrochloride]
[Q] Would you let me know which has the greater Kb value, P or Q ? Your answer should be the label attached to the chosen record.
[A] P
(P: 2510 nM, Q: 1260 nM)

---

# TESTED TARGET: prostaglandin E2-induced contractions of segments of guinea pig ileum (Cavia porcellus, UniProt A0A286XHJ6)
# Construct: Segments of ileum about 2 cm long were then cut and mounted in a 10-mL tissue bath; from tissue; host or cells: guinea pig ileum segments
# PROCEDURE DETAILS: Prostaglandin (PGE) Antagonism Assay, guinea pig ileum
# Format: cell-based
# Parameters: key: Active: the initial concentration used yielded at least a two-fold shift (dose ratio greater than or equal to 2) in the dose response curve for prostaglandin E2
# TEST PARAMETERS: initial concentration 3 micromolar
Structures can show the parent of a compound that is named as a salt.
RESULT TYPE: PGE in guinea pig ileum, activity

Here's what some known entries look like.
# PGE in guinea pig ileum, activity (compound: `CCS(=O)(=O)CCC(=O)CNC(=O)N1Cc2ccccc2Oc2ccc(Cl)cc21` ) is Active

Entry `O=C(CCSCc1ccco1)NCC(=O)N1Cc2ccccc2Oc2ccc(Cl)cc21` — recorded PGE in guinea pig ileum, activity = Active

The value of PGE in guinea pig ileum, activity measured for the compound O=C(CCc1ccncc1)NCC(=O)N1Cc2ccccc2Oc2ccc(Cl)cc21 [Example 3, monohydrochloride] turned out to be Active

PGE in guinea pig ileum, activity recorded for this compound, `O=C(CCSCc1cccs1)NCC(=O)N1Cc2ccccc2Oc2ccc(Cl)cc21` , is Active

So, `O=C(CCSCc1ccco1)CNC(=O)N1Cc2ccccc2Oc2ccc(Cl)cc21` ? Its PGE in guinea pig ileum, activity was Active

More entries:
PGE in guinea pig ileum, activity recorded for this compound, NCCC(=O)NCC(=O)N1Cc2ccccc2Oc2ccc(Cl)cc21 [Example 5, monohydrochloride] , is Active

So, `CCS(=O)(=O)CCC(=O)NCC(=O)N1Cc2ccccc2Oc2ccc(Cl)cc21` ? Its PGE in guinea pig ileum, activity was Active

For this compound ( O=C(CCNCc1cccs1)NCC(=O)N1Cc2ccccc2Oc2ccc(Cl)cc21 [Example 7, monohydrochloride] ), measured PGE in guinea pig ileum, activity is Active

Value of PGE in guinea pig ileum, activity reported for the compound CN(C)CCSCCC(=O)NCC(=O)N1Cc2ccccc2Oc2ccc(Cl)cc21 [Example 6, monohydrochloride] is Active

---

# TESTED TARGET: prostaglandin E2-induced contractions of segments of guinea pig ileum (Cavia porcellus, UniProt A0A286XHJ6)
# Construct: Segments of ileum about 2 cm long were then cut and mounted in a 10-mL tissue bath; from tissue; host or cells: guinea pig ileum segments
# PROCEDURE DETAILS: Prostaglandin (PGE) Antagonism Assay, guinea pig ileum
# Assay type: cell-based
# TEST PARAMETERS: Schild plot calculation, varying concentrations; read-out: PGE in guinea pig ileum (pA2) (converted)
Counter-ions that a name gives are not always drawn.
RESULT TYPE: Kb (nM)

Past entries and their recorded results:
GET /value?item= `O=C(CCSCc1ccco1)NCC(=O)N1Cc2ccccc2Oc2ccc(Cl)cc21` &field=Kb returns 10

So, O=C(CCNCc1cccs1)NCC(=O)N1Cc2ccccc2Oc2ccc(Cl)cc21 [Example 7, monohydrochloride] ? Its Kb was 316

1: O=C(CCSCc1cccs1)NCC(=O)N1Cc2ccccc2Oc2ccc(Cl)cc21
2: O=C(CCSCc1ccco1)CNC(=O)N1Cc2ccccc2Oc2ccc(Cl)cc21
[Q] When the recorded Kb values are compared, which is smaller: that of 1 or that of 2 ? Respond with the label that goes with your answer.
[A] 1
